FYI, the data here is from a melting point compilation (Tetko et al.; mined from patent text by program, amines drawn as free bases though some values may be those of a salt).

What melting point was measured for each of the following?

Request: State its melting point: COc1cc(Nc2nc3ccnc(-c4ccc(N)cc4)c3o2)cc(OC)c1OC
Result: 148 to 151 °C

Request: Answer with the recorded melting point for the compound listed here: CNC(=O)CCC(C)=S
Result: 67 to 70 °C

Request: Return the recorded melting point value; entry: CCN1CC(CCN2CCOCC2)N(C)c2ccccc2C1=O (stereo unspecified)
Result: 128 to 148 °C

Return reported melting point values for all items listed beneath this line.
1. CCOC(=O)Nc1ccc2c(c1)CCSCC2=O
2. CC(C)S(=O)(=O)c1cc(OCCc2ccccn2)c2[nH]nc(Nc3cnccn3)c2c1
3. CCN1CCc2c(c(Br)cc([N+](=O)[O-])c2NC(C)=O)C1
4. COc1ccc(NC(=O)Nc2nc3nc(NCCCN4CCN(C)CC4)ncc3cc2-c2c(Cl)cccc2Cl)cc1
5. O=C(/C=C\[C@H]1CC1(c1ccccc1)c1ccccc1)NCCCCc1cccnc1

Result:
1: 145 to 146 °C; 2: 195 to 196 °C; 3: 168 °C; 4: 93.5 to 100 °C; 5: 115 to 116 °C

Could I get melting point for every one of these entries?
1. CN(C)C(=O)N(C)c1nnc(C(C)(C)CCl)s1
2. O=C(c1ccncc1)c1ccc(Cl)c([N+](=O)[O-])c1
3. CNc1nc(N)nc(N)n1
4. CCCC(=O)c1cnc2c(F)cccc2c1Cl
5. CC(C)(C)CNS(=O)(=O)c1cccc(NC(=O)c2cnn3c(C(F)F)cc(-c4ccc(C(F)(F)F)cc4)nc23)c1
6. CC(=O)SCC1CN2CCCC(C(=O)OC(C)(C)C)N2C1=O (stereo unspecified)
7. CC(=O)Nc1cccc(NC(C)=O)c1
8. CC(C)(C)C(F)(F)c1ccc(C[C@@H](C(=O)O)[C@@H](O)c2cccc(Cl)c2)cc1 (racemic)

Result:
1. 80 to 82 °C
2. 114 to 116 °C
3. 269 °C
4. 57 to 60 °C
5. 208 °C
6. 92 to 93 °C
7. 190 to 191 °C
8. 141 to 142 °C

Dear colleague, could you send me melting point for each of the items below? Thanks.
1. CCc1ccc2[nH]c(C(=O)O)cc2c1
2. CCc1ccc(Cc2cn(C3OC(COC(=O)c4ccccc4)C(F)C(OC(=O)c4ccccc4)C3OC(=O)c3ccccc3)c3cccc(Cl)c23)cc1 (stereo unspecified)
3. CC(=O)Nc1ccc2c(c1)C(C)(C)CCC2(C)C
4. CN(C)C1(c2ccccc2)CCC(c2c[nH]c3ncccc23)CC1 (stereo unspecified)
5. N#Cc1ccccc1OC[C@@H](O)CNCCOc1ccc2oc(-c3ccon3)cc2c1
6. CC12CC(=O)C3C(CCC4CC(O)CCC43C)C1CCC2C(=O)O (stereo unspecified)
7. Nc1c(Br)cc(C2=NNC(=O)Cc3cc4c(cc32)OCO4)cc1Br

Result:
173 °C
137 to 138 °C
116 to 118 °C
130 to 133 °C
94 to 95 °C
265 to 270 °C
162 to 165 °C

====

measurement_name: melting point

Examples with answers:
Request: Given the molecule CC(C)c1cccc(C(C)C)c1NC(=O)Nc1ccc(-c2ccccc2)nc1-c1ccccc1 , write its reported melting point.
Result: 206 to 208 °C

Request: State its melting point: Cc1nc(CC#N)c2n1-c1ccc(Cl)cc1C(c1ccccc1Cl)=NC2
Result: 212 to 214 °C

Request: Using the record for COC(=O)c1ccc(C)c(-n2c(C)cc(OCc3ccccc3CNC(=O)Nc3cc(C(C)(C)C)nn3-c3cccc(OCCO)c3)c(Cl)c2=O)c1 , state its measured melting point.
Result: 147 to 148 °C

Request: Let me know recorded melting point for Cc1ccc(C(=O)Nc2c[nH]nc2C(=O)NCCC(F)(F)F)cn1 , thanks.
Result: 196 to 197 °C

Request: Identify measured melting point associated with COc1ccc(C(=O)O)c(OCCN2CCC(c3cn(Cc4ccoc4)c4ncccc34)CC2)c1
Result: 91.5 to 93.2 °C

Request: Give the measured melting point for CC1C(=O)N(C2CCCC2)C(=S)N1c1ccc(Oc2ccccc2)cc1 (stereo not drawn)
Result: 99 °C

Request: Supply measured melting point of OC1CSC(Oc2cncc(-c3ccc(F)c(Cl)c3)c2)C(O)C1O (stereo not drawn) in your reply.
Result: 200 to 201 °C

Kindly review the next molecule as well.
Request: Specify measured melting point for CCCCc1c(C(=O)N(C)Cc2ccc3c(Br)c(OCC(Cc4ccccc4)C(=O)O)ccc3c2)oc2ccccc12 (stereo not drawn) .
Result: 64 to 68 °C

====

Give melting point for every item shown.

Request: Identify measured melting point associated with O=C(O)c1cccc(C(=O)NCc2ccc(F)c(-c3cccc(CO)c3)c2)c1
Result: 169 to 171 °C

Request: Tell me melting point reported for CS(=O)(=O)c1ccc(-c2cnn(C3C4CC5CC(C4)CC3C5)c(=O)c2-c2ccc(F)cc2)cc1 (centres undefined)
Result: 195 to 197 °C

Request: Kindly indicate its recorded melting point. Item: NC(=O)Cc1ccc2[nH]cc(CCN3C(=O)c4ccccc4C3=O)c2c1
Result: 191 to 193 °C

Could you tell me melting point for each of these compounds? They are listed below.
1. CCC(Br)=C(CC)S(=O)(=O)CBr
2. CC(C)(C)OC(=O)Nc1ccc(C#Cc2ccc(F)cc2)cc1NC(=O)CC(=O)c1cccc(-n2cncn2)c1
3. O=C(C=Cc1ccc(Cl)c(C(F)(F)F)c1)NN1CC(=O)NC1=O
4. C=C1c2c(ccc(OC(C)=O)c2OC(C)=O)C(=O)N2CCCCC12 (centres undefined)
5. O=C(CNC1=Nc2cccc3cccc1c23)NCCCn1ccnc1

Result:
96 to 97 °C
131 to 139 °C
270 to 273 °C
129 to 132 °C
145 to 146 °C

Request: Please list melting point recorded for the compound CCCCC[C@H]1CC[C@H](CCc2ccc(-c3ccc(Br)cc3F)cc2)CC1
Result: 57.5 °C

====

What melting point was measured for each of the following?

Request: Note melting point for the compound shown: N=C(N)c1ccc(-c2ccc(Nc3ccc(CCC(=O)O)cc3)nn2)cc1
Result: > 260 °C

Request: Check the records and state melting point for O=C(O)Cn1c(=S)sc2ccccc21
Result: 187 to 189 °C

Request: Provide measured melting point value, entry: O=S(=O)(Nc1ccc(Cl)cc1C1=NN(c2ccccc2)CC1)C(F)(F)F
Result: 138 to 163 °C

Field: melting point. Fill in for each record below.
1. CC(C)(O)CCCCCc1ccc(C=Cc2ccc(CO)c(CO)c2)cc1
2. CNC(=O)N(C(=O)Nc1ccccc1)c1ccccc1
3. O=C(NC1(Cc2ccccc2)CCN(Cc2ccccc2)CC1)N1CCCC1

Result:
1: 112 to 114 °C; 2: 145 to 147 °C; 3: 126 °C

====

Hi there, I'd appreciate the recorded melting point for every entry that follows.

Would you please look over these solved cases?
Request: Kindly indicate its recorded melting point. Item: C#CCc1c(C)nc2c(NCc3c(C)cccc3NC(=O)OC)cc(NC(C)=O)cn12
Result: 125 to 128 °C

Request: Using known records, supply melting point for COCC1CN(c2ccc(C3CCCCC3)c(O)c2)C(=O)O1 (racemic)
Result: 207 to 208 °C

Request: Report measured melting point; entry is FC(F)(F)c1nn(-c2c(Cl)cc(Cl)cc2Cl)cc1Br
Result: 93 to 94 °C

Request: Specify reported melting point for the compound shown: COc1ccccc1C(Cn1ccnc1)S(=O)(=O)c1ccc(C(=O)O)cc1 (stereo not given)
Result: 134 to 138 °C

Now look at this entry.
Request: Indicate the recorded melting point value for this compound: COc1cc(NC(=O)NC(=O)c2c(F)cccc2F)ccc1OC(F)(F)C(F)(F)c1ccc(Cl)cc1
Result: 133 to 134 °C

====

Give measured melting point for each item. Keep answers brief.

Some solved cases for reference:
Request: Specify measured melting point for NC1=NC(c2cccc(-c3cccnc3F)c2)C2=NC(c3ccc(OC(F)F)cc3)C3(CCC3)CN12 (configuration not stated) .
Result: 220 to 226 °C

Request: Quick one: give measured melting point for CCC(=O)OC1(C(=O)CCl)C(C)CC2C3CCC4CC(=O)CCC4(C)C3(Cl)C(Cl)CC21C (configuration not stated)
Result: 164 °C

Request: Please report the measured melting point for CN(C)C1(c2ccccc2)CCC2(OCCc3c2[nH]c2ccc(F)cc32)C(Cc2cccc(F)c2)C1 (configuration not stated)
Result: 133 to 135 °C

Request: Consider the compound CC(C)(C)NC(=O)Nc1nc2nc(N)ncc2cc1-c1ccccc1 . State its measured melting point.
Result: > 250 °C

Request: Given the compound Cc1ccc2nc(C)c(=O)n(-c3ccc(Cl)cc3)c2c1 , write its reported melting point.
Result: 144 to 145 °C

For each of the items listed, what is its melting point?
1. O=C(O)c1ccc(C2=NCCO2)cc1
2. CNC(=O)c1ccc(C(=O)OC)cc1
3. Cc1ccc(C(=O)c2ccc(OCC(=O)O)c(Cl)c2Cl)cc1
4. CCOCc1cc2cccc(OC)c2oc1=O

Result:
["> 300 °C", "126 °C", "176 to 177 °C", "131 to 133 °C"]

For each of the compounds below, state melting point.
1. CN(C)c1ccc(NC(=O)[C@@H](Cc2ccccc2)NC(=O)CCC(=O)O)cc1
2. Cc1nc2c(N)nc3ccccc3c2n1CC1(O)CCCCC1
3. O=C(Nc1ccccc1S(=O)(=O)N1CCCCC1)N[C@@H](Cc1ccc(Nc2nccc3ccncc23)cc1)C(=O)O
4. Cc1c(C)c(C(=O)CCl)c(C)c(C)c1Cl
5. CC1(C)CCC(C)(C)C1C(=O)O
6. Cc1c(CO)c2cnnc(OCc3ccc(F)cc3)c2n1Cc1ccccc1

Result:
["197 to 198 °C", "> 250 °C", "179 °C", "94 to 96 °C", "114 °C", "122 to 124 °C"]

Hi! Can you tell me melting point for each of these compounds?
1. CC(C#Cc1ccc(-c2ccccc2)o1)N(O)C(N)=O (configuration not stated)
2. Fc1ccc(C2CN(C(c3ccccc3)c3ccccc3)C2)cc1

Result:
1. 163 to 164 °C
2. 65 to 66 °C
